plant injury at 500 g/ha for assorted molecules
System: corn (Zea mays)
METHOD: Test A postemergence
Assay type: in vivo
MEASUREMENT CONDITIONS: Zea mays, post-emergence, 240 h, 500 g ai/ha, postemergence; 0 to 100 scale, 0 is no effect, 100 is complete control; read-out: Corn plant response rating
MEASURED ENDPOINT: plant injury at 500 g/ha

MOLECULE: CN1CC(c2cccc(/C=C/Cl)c2)C(C(=O)Nc2ccccc2F)C1=O (centres unmarked)
TARGET SYSTEM: corn (Zea mays)
ASSAY VALUE: 0%

MOLECULE: CC(C)Oc1ccc([C@H]2CNC(=O)[C@@H]2C(=O)Nc2ccc(F)cc2F)cc1
TARGET SYSTEM: corn (Zea mays)
ASSAY VALUE: 0%

MOLECULE: CN1C[C@H](c2csc(C(F)F)c2)[C@@H](C(=O)Nc2ccccc2F)C1=O
TARGET SYSTEM: corn (Zea mays)
ASSAY VALUE: 80%

MOLECULE: CSc1ccccc1NC(=O)[C@H]1C(=O)N(C)C[C@@H]1c1ccc(C(F)(F)F)nc1
TARGET SYSTEM: corn (Zea mays)
ASSAY VALUE: 20%

MOLECULE: CSc1ccccc1NC(=O)[C@H]1C(=O)NC[C@@H]1c1ccc(F)c(C#N)c1
TARGET SYSTEM: corn (Zea mays)
ASSAY VALUE: 0%

MOLECULE: Cc1cc([C@H]2CN(C)C(=O)[C@@H]2C(=O)Nc2cccc(F)c2F)ccc1Br
TARGET SYSTEM: corn (Zea mays)
ASSAY VALUE: 60%

MOLECULE: O=C1NC[C@H](c2ccc3sccc3c2)[C@H]1C(=O)Nc1cccc(F)c1F
TARGET SYSTEM: corn (Zea mays)
ASSAY VALUE: 50%

MOLECULE: Cc1c(F)cccc1NC(=O)[C@H]1C(=O)N(C)C[C@@H]1c1ccc(F)c(Br)c1
TARGET SYSTEM: corn (Zea mays)
ASSAY VALUE: 90%

Reference for the values: patent US12077503B2
